target: T1, extracellular domain (ECD) of human epidermal growth factor receptor 2 (HER2) (Homo sapiens, UniProt P04626); test: SPR; BIAcore T200; HER2/ECD immobilised on a CM5 chip by amine coupling to 1000 RU; IgG flowed in PBST (0.05% Tween 20) at 30 uL/min; regeneration 10 mM glycine pH 1.5; global fit to a 1:1 binding model; conditions: both partners purified
T1 construct: human epidermal growth factor receptor 2 (HER2), extracellular domain; also called HER2/ECD
propertyLabel: koff (s⁻¹)

binder="M41 IgG (mouse anti-HER2/ECD) (antibody, V domains shown, mouse VL; L49~L53 YYTSG; L91~L96 VNTLPY; mouse VH; H50~H58 NFHPYNDYTN; H96~H100B HDGYYGA; recombinant IgG from a scFv of an immunized mouse's phage library; source: HEK293-F, transient transfection, purified (Protein A, Superdex 200)) VH: EVQLQQSGAELVKPGASVKMSCKAFGYTFTTYPIEWMKQNHGKSLEWIGNFHPYNDYTNYNEKFKGKAKLTVEKSSTTVYLELSRLTSDDSAVYYCARRHDGYYGAMDYWGQGTSVTVSS VL: DIQMTQTTSSLSASLGDRVTISCRTSQDISNYLNWYQQKPNGTIKLLIYYTSGLYSGVPSRFSGSGSGADYSLTISNVEQEDIATYFCQQVNTLPYTFGGGTKLELK" propertylabel=koff assayvalue=3.48e-05
binder="GH2-21 IgG (antibody, V domains shown, source: HEK293-F, transient transfection, purified (Protein A, Superdex 200)) VH: EVQLVESGGGLVQPGGSLRLSCAASGFTINDYSIHWVRQAPGKGLEWVASIWPFGGSTSYADSVKGRFTISADTSKNTAYLQMNSLRAEDTAVYYCARFNYWIGIIMDYWGQGTLVTVSS VL: DIQMTQSPSSLSASVGDRVTITCRASQDVSDNVAWYQQKPGKAPKLLIYWATGLYSGVPSRFSGSGSGTDFTLTISSLQPEDFATYYCQQYYGFPLTFGQGTKVEIK" propertylabel=koff assayvalue=0.000623
binder="GH2-8 IgG (antibody, V domains shown, source: HEK293-F, transient transfection, purified (Protein A, Superdex 200)) VH: GVQLVESGGGLVQPGGSLRLSCAASGFTIGSSGIHWVRQAPGKGLEWVAGIWPYWGSTYYADSVKGRFTISADTSKNTAYLQMNSLRAEDTAVYYCARFGVGYHYYMDYWGQGTLVTVSS VL: DIQMTQSPSSLSASVGDRVTITCRASQDVGWWVAWYQQKPGKAPKLLISGATGLYSGVPSRFSGSGSGTDFTLTISSLQPEDFATYYCQQSWDSPITFGQGTKVEIK" propertylabel=koff assayvalue=0.000155
